# Test system: BDF1 mice, P388 leukemia ip, median survival T/C
# experiment: NCI In Vivo Anticancer Drug Screen. Data for tumor model P388 Leukemia (intraperitoneal) in B6D2F1 (BDF1) mice
# test.context: endpoint: median survival time; dose: 100.0 mg/kg/injection; schedule: Q01DX009 (ip); vehicle: saline; higher = longer survival
Toxic doses and inconclusive results are not listed.

{"molecule": "C1CCNCC1.COc1ccccc1C(=O)[CH-]C(=O)C(F)(F)F.COc1ccccc1C(=O)[CH-]C(=O)C(F)(F)F.COc1ccccc1C(=O)[CH-]C(=O)C(F)(F)F.COc1ccccc1C(=O)[CH-]C(=O)C(F)(F)F.[Eu+3]", "T/C": "119 % of control"}
{"molecule": "COC(C)C(Br)C(=O)O (configuration not stated)", "T/C": "88 % of control"}
{"molecule": "CN(CC[N+]1(C)CCCC1)P(=O)(N1CCCC1)N1CCCC1", "T/C": "101 % of control"}
{"molecule": "CN(C)N/C=N/S(C)(=O)=O", "T/C": "101 % of control"}
{"molecule": "C[N+]12CCN(CC1)CC2", "T/C": "91 % of control"}
{"molecule": "CCCC1CC(C(=O)NC(C(C)Cl)C2OC(SC)C(O)C(O)C2O)N(C)C1 (configuration not stated)", "T/C": "94 % of control"}
{"molecule": "CCOC(=O)C[n+]1ccccc1", "T/C": "90 % of control"}
{"molecule": "CCN(CC)C(=O)Cn1cc(F)c(N)nc1=O", "T/C": "95 % of control"}
{"molecule": "C[C@]12CCC(=O)C[C@@H]1CC[C@@H]1[C@@H]2CC[C@]2(C)[C@@H](OC(=O)N(CCCl)N=O)CC[C@@H]12", "T/C": "100 % of control"}
{"molecule": "NC(CCC(=O)c1ccccn1)C(=O)O (configuration not stated)", "T/C": "117 % of control"}
{"molecule": "CC(O)C(C)(O)C(=O)O (configuration not stated)", "T/C": "117 % of control"}
{"molecule": "CC1=NC(C(=O)O)C(=O)O1 (configuration not stated)", "T/C": "104 % of control"}
